Reference for the values: patent US9682966B2

Measured pIC50 of individual entries
target: kappa opioid receptor (OPRK1) (Homo sapiens (Human)); assay: OPRK1 antagonist assay (b-arrestin-2-TEV / b-lactamase reporter, EC80 U-50488 challenge); details: OPRK1 antagonist assay vs EC80 U-50488
Please treat pIC50 as minus the base-10 logarithm of the molar concentration.

Sample answers from the record:
[[record]]
molecule = "CO[C@@H]1CN(c2nc3ccc(C)cc3cc2-c2nc(C)no2)CC[C@@H]1NC1CCCC1 [compound 347]"
attribute_measured = "pIC50"
numeric_value = 7.49

[[record]]
molecule = "Cc1cnc(N2CCC(NCC(C)C)CC2)c(-c2ccc(C)nn2)c1 [C93]"
attribute_measured = "pIC50"
numeric_value = 4.99

[[record]]
molecule = "Cc1ccc2nc(N3CCC(NC4CCCOC4)CC3)c(-c3noc(C)n3)cc2c1 (stereo not drawn) [compound 419]"
attribute_measured = "pIC50"
numeric_value = 8.70

[[record]]
molecule = "Cc1ccc2nc(N3CCC(N[C@H](C)C(C)C)CC3)c(-c3noc(C)n3)cc2c1 [compound 524]"
attribute_measured = "pIC50"
numeric_value = 7.24


# next molecule below
Record Cc1ccc2nc(N3CCC(NC4CCC[C@@H]4O)CC3)c(-c3ccc(C)nn3)cc2c1 (stereo partly drawn) [compound 444] . Reported pIC50: 6.20

* * *

biological target: kappa opioid receptor (OPRK1) (Homo sapiens (Human), UniProt P41145); test: OPRK1 antagonist assay (b-arrestin-2-TEV / b-lactamase reporter, EC80 U-50488 challenge); assay type: cell-based; conditions: OPRK1 antagonist assay vs EC80 U-50488
Sequence (P41145 whole entry): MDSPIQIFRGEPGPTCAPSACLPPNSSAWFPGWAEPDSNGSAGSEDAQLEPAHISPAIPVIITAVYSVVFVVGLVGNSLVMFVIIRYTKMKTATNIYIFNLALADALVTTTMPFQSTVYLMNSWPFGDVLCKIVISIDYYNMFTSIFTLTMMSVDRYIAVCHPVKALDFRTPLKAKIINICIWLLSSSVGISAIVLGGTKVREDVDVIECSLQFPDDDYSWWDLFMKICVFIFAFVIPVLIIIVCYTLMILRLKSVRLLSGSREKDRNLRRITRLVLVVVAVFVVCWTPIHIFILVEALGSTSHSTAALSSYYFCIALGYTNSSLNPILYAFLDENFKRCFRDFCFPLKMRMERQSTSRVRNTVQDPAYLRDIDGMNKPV
pIC50 reference
# pIC50 = -log10(concentration in molar units)

Take a look at these entries with their results.
[[record]]
compound = "Cc1noc(-c2ccc(CO)nc2N2CCC(NC3CCCCC3)CC2)n1 [compound 428]"
numeric_value = 7.00

[[record]]
compound = "Cc1ccc2nc(N3CCC(NCC(C)(C)O)CC3)c(-c3noc(C)n3)cc2c1 [compound 412]"
numeric_value = 6.32

[[record]]
compound = "COC1CN(c2ncc(C)cc2-c2cc(C)no2)CCC1NC1CCCCC1 (stereo not shown) [compound 380]"
numeric_value = 6.89

[[record]]
compound = "CO[C@H]1CN(c2ncc(C)cc2-c2noc(C)n2)CC[C@H]1NC1CCCCC1 [compound 395]"
numeric_value = 7.31

[[record]]
compound = "Cc1cc(-c2noc(C)n2)c(N2CCC(NC3CCCC[C@@H]3O)CC2)nn1 (stereo partly shown) [compound 452]"
numeric_value = 7.33


The compound listed as CO/N=C/c1cc2cc(C)ccc2nc1N1CCC(NC2CCCCC2)CC1 [compound 459] shows pIC50 equal to 7.82

So for CO[C@@H]1CN(c2nc3ccccc3cc2-c2nc(C)no2)CC[C@@H]1NC1CCCCC1 [compound 329] , the logged pIC50 turned out to be 7.91

* * *

target: kappa opioid receptor (OPRK1) (Homo sapiens (Human)); assay: OPRK1 antagonist assay (b-arrestin-2-TEV / b-lactamase reporter, EC80 U-50488 challenge); conditions: OPRK1 antagonist assay vs EC80 U-50488
Listing: pIC50 of selected molecules
Lab note: report pIC50 as minus log10 of the concentration in molar units, number only.

For orientation, consider the following solved cases.
[[record]]
molecule = "CCO/N=C/c1cc2cc(C)ccc2nc1N1CCC(NC2CCCCC2)CC1 [compound 460]"
study_target = "kappa opioid receptor (OPRK1) (Homo sapiens (Human))"
numeric_value = 6.85

[[record]]
molecule = "CO[C@H]1CN(c2nc(C)ccc2-c2noc(C)n2)CC[C@H]1NC1CCCCC1 [compound 429]"
study_target = "kappa opioid receptor (OPRK1) (Homo sapiens (Human))"
numeric_value = 6.67

[[record]]
molecule = "CO[C@@H]1CN(c2ncc(C)cc2-c2nc(C)no2)CC[C@@H]1NC1CCCC1 [compound 345]"
study_target = "kappa opioid receptor (OPRK1) (Homo sapiens (Human))"
numeric_value = 6.98

[[record]]
molecule = "CO[C@H]1CN(c2ncc(C)cc2-n2ccc(C)n2)CC[C@H]1NC1CCCCC1 [compound 366]"
study_target = "kappa opioid receptor (OPRK1) (Homo sapiens (Human))"
numeric_value = 7.72

[[record]]
molecule = "CO[C@H]1CN(c2ncc(C)cc2-c2nc(C3CC3)no2)CC[C@H]1NC1CCCCC1 [compound 398]"
study_target = "kappa opioid receptor (OPRK1) (Homo sapiens (Human))"
numeric_value = 7.74

[[record]]
molecule = "Cc1nc(-c2c(N3CCC(NC4CCOCC4)CC3)nc3ccccc3c2C)no1 [compound 447]"
study_target = "kappa opioid receptor (OPRK1) (Homo sapiens (Human))"
numeric_value = 5.94

[[record]]
molecule = "CO[C@H]1CN(c2nnc(C)cc2-c2nc(C3CC3)no2)CC[C@H]1NC1CCCCC1 [compound 456]"
study_target = "kappa opioid receptor (OPRK1) (Homo sapiens (Human))"
numeric_value = 8.22

[[record]]
molecule = "CO[C@@H]1CN(c2nc(C)c(C)cc2-c2nc(C)no2)CC[C@@H]1NC1CCCC1 [compound 346]"
study_target = "kappa opioid receptor (OPRK1) (Homo sapiens (Human))"
numeric_value = 6.86


# context switch: different molecule, same pIC50
pIC50 for Cc1ccc2nc(N3CCC(NC4CCOCC4)CC3)c(-c3ccc(C)nn3)cc2c1 [compound 441] is 6.41

* * *

target: UniProt:P41145; assay: OPRK1 antagonist assay (b-arrestin-2-TEV / b-lactamase reporter, EC80 U-50488 challenge); conditions: OPRK1 antagonist assay vs EC80 U-50488
pIC50: −log10 of the molar value.
Attribute measured: pIC50

[[record]]
compound = "COC(=O)c1cc(Br)cnc1N1CCC(N)CC1 [C1]"
attribute_measured = "pIC50"
result = "< 5.00"


Measured pIC50, CCOC(=O)c1cc(C(N)=O)c(C)nc1N1CCC(NC2CCCCC2)CC1 [C28] : < 5.00

GET /value?item= COC(=O)c1cc(C#N)c(N2CCC(NC3CCCCC3)C(CO)C2)nc1C (centres unmarked) [C56] &field=pIC50 returns < 4.70

// pIC50 value for COC(=O)c1cc(NC(=O)c2cc(C)on2)cnc1N1CCC(NC2CCCCC2)CC1 [C34] : < 5.00

Item: Cc1ccc2nc(N3CCC(NC(C)CC(C)C)CC3)c(-c3nc(C)no3)cc2c1 (centres unmarked) [C72] | pIC50: < 5.00

* * *

molecular target: kappa opioid receptor (OPRK1) (Homo sapiens (Human), UniProt P41145); assay: OPRK1 antagonist assay (b-arrestin-2-TEV / b-lactamase reporter, EC80 U-50488 challenge); details: OPRK1 antagonist assay vs EC80 U-50488
Below: a set of entries, each annotated with reported IC50.

[[record]]
compound = "Cc1ccc2nc(N3CCC(NC(=O)C4CCCCC4)CC3)c(-c3nc(C)no3)cc2c1"
result = "> 10 µM"

[[record]]
compound = "Cc1ccc2nc(N3CCN(CC4CCCCC4)C(CO)C3)c(-c3nc(C)no3)cc2c1 (stereo not shown)"
result = "> 10 µM"

[[record]]
compound = "O=C(c1ccccc1)N1CCC(N[C@@H]2CCCC[C@H]2O)CC1"
result = "> 10 µM"

[[record]]
compound = "COC(=O)c1cc(C#N)c(N2CCC(NC3CCCCC3)CC2)nc1C"
result = "> 20 µM"

[[record]]
compound = "CO[C@H]1CN(c2nc3ccccc3cc2-c2ccc(C)nn2)CC[C@H]1NC1CCCCC1"
result = "0.0168 µM"


Lab book: IC50 of Cc1ccc2nc(N3CCC(NCC(C)C)CC3)c(-c3noc(C)n3)cc2c1 noted as 0.022 µM

Query COC(=O)c1cnc(N2CC[C@@H](NC3CCCCC3)[C@H](O)C2)c(Br)c1 yields IC50 of 4 µM

* * *

biological target: kappa opioid receptor (OPRK1) (Homo sapiens (Human), UniProt P41145); test: OPRK1 antagonist assay (b-arrestin-2-TEV / b-lactamase reporter, EC80 U-50488 challenge); conditions: OPRK1 antagonist assay vs EC80 U-50488
# pIC50 per record follows
Give only the number. pIC50 is defined as minus log10 of concentration in molar units.

Past entries and their recorded results:
[[record]]
compound = "CO[C@@H]1CN(c2nc3ccc(C)cc3cc2-c2nc(C)no2)CC[C@@H]1NC1CCCCC1 [compound 315]"
numeric_value = 8.40

[[record]]
compound = "Cc1ccc2nc(N3CCC(NC4CCCC4)CC3)c(-c3ccc(C)nn3)cc2c1 [compound 445]"
numeric_value = 7.26

[[record]]
compound = "Cc1ccc2nc(N3CCC(NC4CCCCC4)CC3)c(-c3ccc(C)nn3)cc2c1 [compound 438]"
numeric_value = 7.12

[[record]]
compound = "CCc1ccc(-c2cc3cc(C)ccc3nc2N2CCC(NC3CCCCC3)CC2)nn1 [compound 455]"
numeric_value = 5.79

[[record]]
compound = "Cc1noc(-c2cc(C)c(C)nc2N2CCC(NCC(C)C)CC2)n1 [compound 394]"
numeric_value = 6.79


Let's switch to this compound now.
pIC50 measured on Cc1cc(-c2noc(C)n2)c(N2CCC(NCC(C)C)CC2)nn1 [compound 431] = 7.66
